From: patent US20220175942A1

# assayed_system: T1, CCL18_HUMAN (human, UniProt P55774 21-89)
# T1 chain: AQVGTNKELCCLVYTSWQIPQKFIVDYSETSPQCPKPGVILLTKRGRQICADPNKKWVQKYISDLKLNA
# method_summary: BLI
Hi! Just check whether Kd is below 10 nM. Below gives rule met, equal or above gives rule not met.

stdin: Answer whether the binder P546_AMBCA (other) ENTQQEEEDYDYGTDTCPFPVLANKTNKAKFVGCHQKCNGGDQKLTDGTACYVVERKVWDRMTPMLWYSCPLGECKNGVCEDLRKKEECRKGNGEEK has Kd strictly less than 10 nM
stdout: rule not met

stdin: Hello, I'm reviewing records and need to know if Kd of P974_AMBCA (other) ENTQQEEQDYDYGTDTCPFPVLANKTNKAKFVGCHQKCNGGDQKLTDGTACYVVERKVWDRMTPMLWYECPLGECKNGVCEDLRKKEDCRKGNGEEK is below 10 nM. Could you check?
stdout: rule met

stdin: Record P467_RHIPU (other) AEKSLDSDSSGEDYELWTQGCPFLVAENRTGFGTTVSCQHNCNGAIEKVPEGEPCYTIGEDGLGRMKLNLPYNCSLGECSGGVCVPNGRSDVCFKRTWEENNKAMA : is its Kd strictly below 10 nM?
stdout: rule not met

stdin: Please let me know if P985_AMBPA (other) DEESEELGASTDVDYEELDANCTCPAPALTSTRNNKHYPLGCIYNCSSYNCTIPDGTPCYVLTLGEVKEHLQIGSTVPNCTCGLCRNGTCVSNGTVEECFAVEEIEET shows Kd below 10 nM.
stdout: rule not met

stdin: Decide: Kd of P1243_AMBAM (other) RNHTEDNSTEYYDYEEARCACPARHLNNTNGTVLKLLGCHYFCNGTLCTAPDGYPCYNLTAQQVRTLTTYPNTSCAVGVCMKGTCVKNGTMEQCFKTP strictly below 10 nM?
stdout: rule met

stdin: Lab note: Kd threshold 10 nM. Does this binder come in strictly under it? P1180_AMBTR (other) EEPKDGYDYTEGCPFVVLGNGTHAKPAGCSHLCNGAPETLDDNMECYNVTEEVAKRMTPDIPYTCWLGWCSKGECKRDNRTEVCYRGSERE
stdout: rule met

stdin: # TODO verify Kd < 10 nM strictly for this binder: P991_AMBCA (other) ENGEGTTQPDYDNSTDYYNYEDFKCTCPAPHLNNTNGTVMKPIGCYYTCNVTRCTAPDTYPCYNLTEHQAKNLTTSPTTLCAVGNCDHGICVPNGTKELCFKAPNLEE
stdout: rule met
